assay: Oral bioavailability in dog at 0.1 mg/kg; type: ADME, organism-based, Canis lupus familiaris; conditions: in vivo
measurement_kind: bioavailability (%)
Give bare numbers, in %.

State, in one line, measured bioavailability of C[C@@H]1CN(C(=O)[C@@H]2CN(C(C)(C)C)C[C@H]2c2ccc(F)cc2F)C[C@H](C)[C@@]1(O)c1ccc(F)cc1.Cl
28

----------
target: Melanocortin receptor 3 (Homo sapiens, UniProt P41968); experiment: Agonist activity at human recombinant MC3 receptor expressed in CHO cells assessed as cAMP accumulation by enzyme fragment complementation assay; type: functional, cell-based
Sequence (P41968 whole entry, the tested form may be a part): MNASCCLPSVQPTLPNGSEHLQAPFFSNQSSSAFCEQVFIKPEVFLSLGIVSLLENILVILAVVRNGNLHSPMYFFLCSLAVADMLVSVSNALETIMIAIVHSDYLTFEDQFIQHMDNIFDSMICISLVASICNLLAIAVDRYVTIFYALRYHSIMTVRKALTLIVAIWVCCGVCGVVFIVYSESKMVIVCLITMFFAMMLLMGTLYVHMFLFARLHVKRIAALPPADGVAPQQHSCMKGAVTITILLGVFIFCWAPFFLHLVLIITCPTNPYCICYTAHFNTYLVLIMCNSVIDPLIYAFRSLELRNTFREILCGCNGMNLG
Label key: met means EC50 under 3 µM; not met means EC50 of 3 µM or more.

Recorded results for 10 compounds are shown here.
> print(dat)
                                  smiles.str    class
 1  C[C@@H]1CN(C(=O)[C@H]2CN(c3cccnn3)C[C@@H]2c2ccc(F)cc2F)C[C@H](C)[C@@]1(O)C1CC1  not met
 2  C[C@@H]1CN(C(=O)[C@H]2CN(C3CC3)C[C@@H]2c2ccc(F)cc2F)C[C@H](C)[C@@]1(O)c1ccccc1  not met
 3  C[C@@H]1CN(C(=O)[C@@H]2CN(C(C)(C)C)C[C@H]2c2ccc(F)cc2F)C[C@H](C)[C@@]1(O)c1ccc(F)cc1F  not met
 4  C[C@@H]1CN(C(=O)[C@H]2CN(c3cccnc3)C[C@@H]2c2ccc(F)cc2F)C[C@H](C)[C@@]1(O)c1ccccc1      met
 5  C[C@@H]1CN(C(=O)[C@@H]2CN(C(C)(C)C)C[C@H]2c2ccc(F)cc2F)C[C@H](C)[C@@]1(O)c1ccccn1  not met
 6  C[C@@H]1CN(C(=O)[C@@H]2CN(C(C)(C)C)C[C@H]2c2ccc(F)cc2F)C[C@H](C)[C@@]1(O)c1ccccc1.Cl      met
 7  C[C@@H]1CN(C(=O)[C@H]2CN(C3CCC3)C[C@@H]2c2ccc(F)cc2F)C[C@H](C)[C@@]1(O)c1ccccc1      met
 8  CCC[C@@]1(O)[C@H](C)CN(C(=O)[C@H]2CN(c3cccnn3)C[C@@H]2c2ccc(F)cc2F)C[C@@H]1C  not met
 9  C[C@@H]1CN(C(=O)[C@@H]2CN(C)C[C@H]2c2ccc(F)cc2F)C[C@H](C)[C@@]1(O)c1ccc(F)cc1  not met
10  C[C@@H]1CN(C(=O)[C@@H]2CN(C(C)(C)C)C[C@H]2c2ccc(F)cc2F)C[C@H](C)[C@@]1(O)c1cccc(F)c1      met

is_below(EC50, 3 µM) for C[C@@H]1CN(C(=O)[C@H]2CN(c3cccnn3)C[C@@H]2c2ccc(F)cc2F)C[C@H](C)[C@@]1(O)c1ccccc1 ?
met

Lab note: confirm whether the reported EC50 for this compound is below 3 µM, equality not counting. compound: C[C@@H]1CN(C(=O)[C@H]2CN(c3cccnn3)C[C@@H]2c2ccc(F)cc2F)C[C@H](C)[C@@]1(O)c1ccccn1
not met

# strict comparison: is reported EC50 < 3 µM? input = CCN1C[C@@H](C(=O)N2C[C@@H](C)[C@](O)(c3cccc(F)c3)[C@@H](C)C2)[C@H](c2ccc(F)cc2F)C1
not met

Please determine if C[C@@H]1CN(C(=O)[C@H]2CN(c3ncccn3)C[C@@H]2c2ccc(F)cc2F)C[C@H](C)[C@@]1(O)c1ccccc1 is below 3 µM in terms of EC50.
not met

----------
assay: Cmax in dog at 0.67 mg/kg, sublingual; format: ADME, organism-based, Canis lupus familiaris; design: dose 0.67 mg/kg, route sublingual; conditions: in vivo
measurement_kind: Cmax (ng/mL)
Answers are plain numbers, in ng/mL.

For the molecule C[C@@H]1CN(C(=O)[C@@H]2CN(C(C)(C)C)C[C@H]2c2ccc(F)cc2F)C[C@H](C)[C@@]1(O)c1ccccc1.Cl , give its measured Cmax value.
15

----------
molecular target: Melanocyte-stimulating hormone receptor (Homo sapiens); assay: Agonist activity at human recombinant MC1 receptor expressed in HEK293 cells assessed as cAMP accumulation by enzyme fragment complementation assay
Sequence (Q01726 whole entry, the tested form may be a part): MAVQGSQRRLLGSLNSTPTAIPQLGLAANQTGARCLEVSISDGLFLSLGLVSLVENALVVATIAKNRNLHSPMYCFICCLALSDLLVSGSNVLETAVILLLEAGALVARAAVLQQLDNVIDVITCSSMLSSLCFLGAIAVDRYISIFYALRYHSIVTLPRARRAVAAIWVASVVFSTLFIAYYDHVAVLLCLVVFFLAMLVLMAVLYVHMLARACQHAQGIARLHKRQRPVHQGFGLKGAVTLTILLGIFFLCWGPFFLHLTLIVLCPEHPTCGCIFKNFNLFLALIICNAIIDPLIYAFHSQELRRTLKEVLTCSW
pEC50: −log10 of the molar value.
measurement_kind: pEC50

> print(dat)
                                 smiles.str  measurement.kind  measured
1  C[C@@H]1CN(C(=O)[C@H]2CN(c3ccccn3)C[C@@H]2c2ccc(F)cc2F)C[C@H](C)[C@@]1(O)c1ccccc1             pEC50    < 4.78

Please report pEC50 for every entry that follows.
1. C[C@@H]1CN(C(=O)[C@@H]2CN(C(C)(C)C)C[C@H]2c2ccc(F)cc2F)C[C@H](C)[C@@]1(O)c1cccc(F)c1
2. C[C@@H]1CN(C(=O)[C@H]2CN(C3CCOCC3)C[C@@H]2c2ccc(F)cc2F)C[C@H](C)[C@@]1(O)c1ccccc1
3. C[C@@H]1CN(C(=O)[C@H]2CN(c3cccnc3)C[C@@H]2c2ccc(F)cc2F)C[C@H](C)[C@@]1(O)c1ccccc1
4. CCCCN1C[C@H](C(=O)N2C[C@@H](C)[C@](O)(c3ccccc3)[C@@H](C)C2)[C@@H](c2ccc(F)cc2F)C1
5. C[C@@H]1CN(C(=O)[C@H]2CN(C3CC3)C[C@@H]2c2ccc(F)cc2F)C[C@H](C)[C@@]1(O)c1ccccc1

1. < 5.19
2. < 4.92
3. < 5.09
4. 5.96
5. < 5.31

Look at each molecule and report its pEC50.
1. CC(C)N1C[C@@H](C(=O)N2C[C@@H](C)[C@](O)(c3ccccc3)[C@@H](C)C2)[C@H](c2ccc(F)cc2F)C1
2. C[C@@H]1CN(C(=O)[C@H]2CN(c3cccnn3)C[C@@H]2c2ccc(F)cc2F)C[C@H](C)[C@@]1(O)C1CC1

1: 6.12; 2: < 4.78

Provide reported pEC50 for each item, in the same order as listed.
1. C[C@@H]1CN(C(=O)[C@@H]2CN(C(C)(C)C)C[C@H]2c2ccc(F)cc2F)C[C@H](C)[C@@]1(O)c1c(F)cccc1F
2. CCC[C@@]1(O)[C@H](C)CN(C(=O)[C@@H]2CN(C(C)(C)C)C[C@H]2c2ccc(F)cc2F)C[C@@H]1C
3. C[C@@H]1CN(C(=O)[C@@H]2CN(C(C)(C)C)C[C@H]2c2ccc(F)cc2F)C[C@H](C)[C@@]1(O)c1ccc(F)cc1.Cl
4. C[C@@H]1CN(C(=O)[C@@H]2CN(C)C[C@H]2c2ccc(F)cc2F)C[C@H](C)[C@@]1(O)c1ccc(F)cc1

1: < 5.30; 2: 5.44; 3: 5.95; 4: < 5.21

Hello, I would appreciate it if you could give pEC50 for each entry below.
1. C[C@@H]1CN(C(=O)[C@H]2CN(c3ccncn3)C[C@@H]2c2ccc(F)cc2F)C[C@H](C)[C@@]1(O)c1ccccc1
2. CCC[C@@]1(O)[C@H](C)CN(C(=O)[C@H]2CN(c3cccnn3)C[C@@H]2c2ccc(F)cc2F)C[C@@H]1C

1: < 5.05; 2: 5.41

Report pEC50 for every entry below.
1. C[C@@H]1CN(C(=O)[C@@H]2CN(C)C[C@H]2c2ccc(F)cc2F)C[C@H](C)[C@@]1(O)c1ccccc1
2. C[C@@H]1CN(C(=O)[C@@H]2CNC[C@H]2c2ccc(F)cc2F)C[C@H](C)[C@@]1(O)c1ccccc1
3. C[C@@H]1CN(C(=O)[C@H]2CN(c3cccnn3)C[C@@H]2c2ccc(F)cc2F)C[C@H](C)[C@@]1(O)c1ccccc1
4. C[C@@H]1CN(C(=O)[C@@H]2CN(C(C)(C)C)C[C@H]2c2ccc(F)cc2F)C[C@H](C)[C@@]1(O)c1ccc(F)cc1F
5. C[C@@H]1CN(C(=O)[C@H]2CN(C3CCC3)C[C@@H]2c2ccc(F)cc2F)C[C@H](C)[C@@]1(O)c1ccccc1
6. C[C@@H]1CN(C(=O)[C@@H]2CN(C(C)(C)C)C[C@H]2c2ccc(F)cc2F)C[C@H](C)[C@@]1(O)c1ccc(Cl)cc1

< 5.11
< 5.06
< 5.51
5.18
6.46
< 5.23

Return the recorded pEC50 value; entry: CCN1C[C@@H](C(=O)N2C[C@@H](C)[C@](O)(c3cccc(F)c3)[C@@H](C)C2)[C@H](c2ccc(F)cc2F)C1
< 5.08

----------
assay: AUC (0 to infinity) in dog at 0.14 mg/kg, intranasal; assay type: ADME, organism-based, Canis lupus familiaris; set-up: route nasal, time infinity, dose 0.14 mg/kg; details: plasma, inhaled or intranasal
measurement_kind: AUC(0-inf) (ng·h/mL)
Give bare numbers, in ng·h/mL.

For the compound C[C@@H]1CN(C(=O)[C@@H]2CN(C(C)(C)C)C[C@H]2c2ccc(F)cc2F)C[C@H](C)[C@@]1(O)c1ccccc1.Cl , give its reported AUC(0-inf).
12

----------
Record form. Attribute: microsomal CLint. Fill in for each entry.
experiment: Intrinsic clearance in human liver microsome measured per mg of protein; type: ADME; conditions: liver microsomes
Give bare numbers, in µL/min/mg.

Study these solved cases before continuing.
> print(dat)
                                 smiles.str  measurement.kind  measured
1  C[C@@H]1CN(C(=O)[C@@H]2CN(C(C)(C)C)C[C@H]2c2ccc(F)cc2F)C[C@H](C)[C@@]1(O)c1ccc(F)cc1.Cl  microsomal CLint        28
2  CC(C)N1C[C@@H](C(=O)N2C[C@@H](C)[C@](O)(c3cccc(F)c3)[C@@H](C)C2)[C@H](c2ccc(F)cc2F)C1  microsomal CLint        70
3  CC(C)N1C[C@@H](C(=O)N2C[C@@H](C)[C@](O)(c3ccc(Cl)cc3)[C@@H](C)C2)[C@H](c2ccc(F)cc2F)C1  microsomal CLint        34
4  C[C@@H]1CN(C(=O)[C@@H]2CN(C(C)(C)C)C[C@H]2c2ccc(F)cc2F)C[C@H](C)[C@@]1(O)c1ccc(F)c(F)c1  microsomal CLint        22
5  CCN1C[C@@H](C(=O)N2C[C@@H](C)[C@](O)(c3cccc(F)c3)[C@@H](C)C2)[C@H](c2ccc(F)cc2F)C1  microsomal CLint        73

Provide reported microsomal CLint for each item, in the same order as listed.
1. C[C@@H]1CN(C(=O)[C@H]2CN(c3cccnn3)C[C@@H]2c2ccc(F)cc2F)C[C@H](C)[C@@]1(O)c1ccc(F)cc1
2. CC(C)N1C[C@@H](C(=O)N2C[C@@H](C)[C@](O)(c3ccc(F)c(F)c3)[C@@H](C)C2)[C@H](c2ccc(F)cc2F)C1

310
28
